# ASSAYED_TARGET: Alpha-1A adrenergic receptor (Homo sapiens)
# Sequence (P35348 whole entry): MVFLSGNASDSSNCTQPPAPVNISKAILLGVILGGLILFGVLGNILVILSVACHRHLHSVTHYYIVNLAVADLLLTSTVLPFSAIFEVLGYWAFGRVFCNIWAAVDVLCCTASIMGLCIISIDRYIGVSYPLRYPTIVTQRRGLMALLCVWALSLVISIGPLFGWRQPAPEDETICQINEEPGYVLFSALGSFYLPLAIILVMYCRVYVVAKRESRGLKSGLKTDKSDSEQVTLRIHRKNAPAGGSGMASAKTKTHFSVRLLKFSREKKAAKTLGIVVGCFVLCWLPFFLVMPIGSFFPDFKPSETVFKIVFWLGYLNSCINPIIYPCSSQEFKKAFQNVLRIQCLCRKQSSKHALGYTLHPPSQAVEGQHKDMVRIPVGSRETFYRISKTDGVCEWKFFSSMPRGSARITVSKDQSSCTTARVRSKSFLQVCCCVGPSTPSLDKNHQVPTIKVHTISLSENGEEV
# ASSAY: In vitro binding affinity at human Alpha-1A adrenergic receptor.
PARAMETER_MEASURED: pKi
Keep in mind that pKi stands for -log10 of concentration in molar terms.

Recorded pKi, per entry:
COc1cc2c(cc1O)CCN1Cc3c(ccc(O)c3OC)C[C@@H]21 | 6.21
C[C@H](CN1CCN(c2cc(F)c(F)cc2F)CC1)N1C(=O)CC2(CCCC2)CC1=O | 6.53

Moving on to another molecule below.
For COc1ccccc1N1CCN(CCn2nc(-c3ccccc3)c3c(C)onc3c2=O)CC1 , what is its reported pKi?
8.85

====

Ki listing for selected molecules.
# ASSAYED_TARGET: Alpha-1A adrenergic receptor (Homo sapiens)
# ASSAY: Binding affinity towards Alpha-1A adrenergic receptor
Give just the numeric value; nM need not be written.

Previously resolved entries follow.
O=c1[nH]c2c([nH]c3ccccc32)c(=O)n1CCN1CCN(c2ccccc2O)CC1 | 8.91
CCOc1ccccc1N1CCN(CCn2cnc3c4ccccc4nc-3c2O)CC1 | 9.77
Cc1nc2c3ccccc3nc-2c(O)n1CCN1CCN(c2ccc(C(C)C)cc2)CC1 | 3550

For CCc1nc2c3ccccc3nc-2c(O)n1CCN1CCN(c2ccccc2OC)CC1 , what is its reported Ki?
49

If you can, please state the reported Ki value of COc1ccccc1N1CCN(CCCn2cnc3c4ccccc4nc-3c2O)CC1 .
16.6

GET /values?readout=Ki&item= O=c1[nH]c2c([nH]c3ccccc32)c(=O)n1CCN1CCN(c2ccccc2Cl)CC1
4.68

Can you share its Ki? I mean this molecule: COc1ccccc1C1CCN(CCn2c(=O)[nH]c3c([nH]c4ccccc43)c2=O)CC1
1.55

Looking for the measured Ki of COc1ccccc1N1CCN(CCCn2c(C)nc3c4ccccc4nc-3c2O)CC1 , can you help?
4.9

Data request, read-out Ki, for O=c1[nH]c2c([nH]c3ccccc32)c(=O)n1CCN1CCN2c3ccccc3OCC2C1 (stereo unspecified)
7940

Request the reported Ki associated with Cc1nc2c3ccccc3nc-2c(O)n1CCN1CCN(c2ccc(C(C)(C)C)cc2)CC1
603

Which Ki is reported for this molecule? COc1ccccc1N1CCN(CCn2cnc3c4ccccc4nc-3c2O)CC1
1.41

Quick one: Ki of CCOc1ccccc1N1CCN(CCn2c(=O)[nH]c3c([nH]c4ccccc43)c2=O)CC1 ?
7.24

Can you share its Ki? I mean this molecule: CCc1nc2c3ccccc3nc-2c(O)n1CCCN1CCN(c2ccccc2OC)CC1
10.7

====

# ASSAYED_TARGET: UniProt:P25100
# Sequence (P25100 whole entry): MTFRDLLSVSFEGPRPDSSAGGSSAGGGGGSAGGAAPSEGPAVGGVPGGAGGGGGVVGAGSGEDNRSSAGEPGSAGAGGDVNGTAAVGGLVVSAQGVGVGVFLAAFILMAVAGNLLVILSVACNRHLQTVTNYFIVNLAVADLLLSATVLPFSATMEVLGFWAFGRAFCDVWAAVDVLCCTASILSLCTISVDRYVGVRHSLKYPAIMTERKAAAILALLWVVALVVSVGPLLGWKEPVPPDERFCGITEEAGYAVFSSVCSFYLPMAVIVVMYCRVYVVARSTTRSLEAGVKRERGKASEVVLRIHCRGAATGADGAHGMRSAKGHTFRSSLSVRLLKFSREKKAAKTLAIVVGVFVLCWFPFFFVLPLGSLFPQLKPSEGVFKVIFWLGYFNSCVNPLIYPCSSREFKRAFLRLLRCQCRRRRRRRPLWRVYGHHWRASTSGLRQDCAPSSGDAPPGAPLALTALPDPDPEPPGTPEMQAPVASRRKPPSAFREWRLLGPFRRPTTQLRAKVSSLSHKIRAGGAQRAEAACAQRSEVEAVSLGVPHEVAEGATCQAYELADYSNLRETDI
# ASSAY: Binding affinity towards Alpha-1D adrenergic receptor
PARAMETER_MEASURED: Ki (nM)
Just the number in nM, nothing appended.

CCOc1ccccc1N1CCN(CCn2cnc3c4ccccc4nc-3c2O)CC1 | 6.03

Value wanted: Ki (UniProt:P25100) of entry Cc1nc2c3ccccc3nc-2c(O)n1CCN1CCN(c2ccc(C(C)(C)C)cc2)CC1
97.7

Observed Ki on UniProt:P25100 for CCc1nc2c3ccccc3nc-2c(O)n1CCCN1CCN(c2ccccc2OC)CC1 , please.
12.6

Value wanted: Ki (UniProt:P25100) of entry O=c1[nH]c2c([nH]c3ccccc32)c(=O)n1CCN1CCN(c2ccccc2O)CC1
0.631
